Attribution: patent US20250206759A1

Test system: KRas G12D-mediated ERK phosphorylation
Protocol Notes: Inhibition of KRas G12D-mediated ERK phosphorylation in AGS cells
Assay type: cell-based
Experimental Setup: Homo sapiens, AGS, read-out: AGS-pERK IC50
Each entry below lists one item and its recorded IC50 value.
Readout Name: IC50

| Compound | Readout Name | Assay Value |
| --- | --- | --- |
| Oc1cc(-c2ncc3c(N4CC5CCC(C4)N5)nc(OCC45CCCN4[C@@H](c4ccc6ccccc6c4)CC5)nc3c2F)c2c(F)c(F)ccc2c1 (mixture of isomers) | IC50 | 2.4 nM |
| Oc1cc(-c2ncc3c(N4CC5CCC(C4)N5)nc(OCC45CCCN4C(c4ccc(Cl)c(C(F)(F)F)c4)CC5)nc3c2F)c2c(F)c(F)ccc2c1 (stereo not drawn) | IC50 | 2.4 nM |
| C#Cc1c(F)ccc2cc(O)cc(-c3ncc4c(N5CC6CCC(C5)N6)nc(OCC56CCCN5[C@@H](c5ccc(F)cc5)CC6)nc4c3F)c12 (single isomer, unassigned) | IC50 | 1.4 nM |

---

Reported values of Cmax for individual entries
Protocol Notes: Pharmacokinetics of compounds in rats (oral)
Assay type: in vivo, SD rats
Experimental Setup: male, SD, rat, plasma, po, 100 mg/kg, male SD rats, 100 mg/kg, read-out: Cmax
Readout Name: Cmax (ng/mL)

| Compound | Readout Name | Assay Value |
| --- | --- | --- |
| Oc1cc(-c2ncc3c(N4CC5CCC(C4)N5)nc(OCC45CCCN4C(c4ccc(OC(F)(F)F)cc4)CC5)nc3c2F)c2ccccc2c1 (centres unmarked) | Cmax | 115 |
| Oc1cc(-c2ncc3c(N4CC5CCC(C4)N5)nc(OCC45CCCN4[C@@H](c4ccc(C(F)(F)F)c(Cl)c4)CC5)nc3c2F)c2c(F)c(F)ccc2c1 (mixture of isomers) | Cmax | 128 |
| CC1(C)OCc2ccc(C3CCC4(COc5nc(N6CC7CCC(C6)N7)c6cnc(-c7cc(O)cc8ccc(F)c(F)c78)c(F)c6n5)CCCN34)cc21 (centres unmarked) | Cmax | 138 |
| Oc1cc(-c2ncc3c(N4CC5CCC(C4)N5)nc(OCC45CCCN4C(c4ccc6c(c4)COCC6)CC5)nc3c2F)c2c(F)c(F)ccc2c1 (centres unmarked) | Cmax | 109 |
| Oc1cc(-c2ncc3c(N4CC5CCC(C4)N5)nc(OCC45CCCN4[C@@H](c4ccc(C(F)(F)F)c(F)c4)CC5)nc3c2F)c2c(F)c(F)ccc2c1 (mixture of isomers) | Cmax | 54 |
| Nc1ccc(C(F)(F)F)c(-c2ncc3c(N4CC5CCC(C4)N5)nc(OCC45CCCN4[C@@H](c4ccc6c(c4)OC(F)(F)O6)CC5)nc3c2F)c1 (mixture of isomers) | Cmax | 182 |
| Oc1cc(-c2ncc3c(N4CC5CCC(C4)N5)nc(OCC45CCCN4C(c4ccc(OC(F)(F)F)cc4)CC5)nc3c2F)c2c(F)c(F)ccc2c1 (centres unmarked) | Cmax | 145 |
| CC1(C)OCc2cc(C3CCC4(COc5nc(N6C[C@H]7CC[C@@H](C6)N7)c6cnc(-c7cc(O)cc8ccc(F)c(F)c78)c(F)c6n5)CCCN34)ccc21 (some centres unmarked) | Cmax | 143 |
| Oc1cc(-c2ncc3c(N4CC5CCC(C4)N5)nc(OCC45CCCN4C(c4ccc(F)cc4)CC5)nc3c2F)c2c(F)c(F)ccc2c1 (centres unmarked) | Cmax | 157 |
| Nc1ccc(OC(F)(F)F)c(-c2ncc3c(N4CC5CCC(C4)N5)nc(OC[C@]45CCCN4C(c4ccc6c(c4)OC(F)(F)O6)CC5)nc3c2F)c1 (some centres unmarked) | Cmax | 388 |
| C#Cc1c(F)ccc2cc(O)cc(-c3ncc4c(N5CC6CCC(C5)N6)nc(OCC56CCCN5C(c5ccc(F)cc5)CC6)nc4c3F)c12 (centres unmarked) | Cmax | 149 |
